# Lookup of reported pIC50 keyed by entry
- MEASURED_ON: Autotaxin (Homo sapiens)
- EXPERIMENT_NOTES: Inhibition of human ATX using FS-3 as substrate measured every 5 mins for 30 mins by fluorescence assay
The read-out pIC50 is expressed as -log10 of concentration in moles per litre.

compound="O=C(OCc1ccccc1)N1CCC(Nc2nc(-c3ccc(CP(=O)(O)O)cc3)cs2)C1 (centres undefined)" recorded_measurement=7.99
compound=CS(=O)(=O)Nc1ccc(-c2csc(C(=O)NC3CCN(C(=O)OCc4cc(Cl)cc(Cl)c4)CC3)n2)cc1 recorded_measurement=8.52
compound=O=S(=O)(Cc1cccc(Nc2nc(-c3ccc(O)c(O)c3)cs2)c1)NCc1ccccc1 recorded_measurement=4.94
compound="NC(=O)c1cc(-c2csc(NC3CCN(C(=O)OCc4ccccc4)C3)n2)ccc1O (centres undefined)" recorded_measurement=5.35
compound=NS(=O)(=O)c1cc(-c2csc(C(=O)NCc3ccc(Cl)cc3)n2)ccc1Cl recorded_measurement=5.68

stdin: Given O=C(NC1CCN(C(=O)OCc2ccccc2)CC1)c1nc(-c2ccc(CP(=O)(O)O)cc2)cs1 , respond with its pIC50.
stdout: 7.86

stdin: Please look at this compound and report its pIC50: O=C(OCc1ccccc1)N1CCC(Nc2nc(-c3ccc(O)c(O)c3)cs2)C1 (centres undefined)
stdout: 5.91

stdin: Using known records, supply pIC50 for NS(=O)(=O)c1cc(-c2csc(NC3CCN(C(=O)OCc4ccccc4)C3)n2)ccc1Cl (centres undefined)
stdout: 5.87
